Data origin, for the record: patent US20200317769A1

measurement target: T1, soluble cynomolgus monkey TNF-alpha (cynomolgus monkey, UniProt P79337 77-233)
T1 construct: also called Cynomolgus TNF; cyno-TNF-alpha
T1 sequence (P79337 77-233 limits assumed): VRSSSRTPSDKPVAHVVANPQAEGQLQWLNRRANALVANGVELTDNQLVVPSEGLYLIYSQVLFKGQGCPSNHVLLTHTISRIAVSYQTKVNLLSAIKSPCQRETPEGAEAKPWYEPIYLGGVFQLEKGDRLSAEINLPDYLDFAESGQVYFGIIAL
test summary: competition ELISA: VHH mixed with cynomolgus TNF-alpha, binding to coated etanercept (TNFR2-Fc)
Task for the reader: assign each of the following binders its reported EC50.
Just the number please, in nM, no unit attached.

Prompt line: For Q62F10 (VHH, not shown: small tags and cut ends, Family 2; purified from E. coli) VHH: EVQLVESGGGLVQPGGSLRLSCVASGFDFNIHWMYWVRQAPGKELEWVAEINTNGLITVYPDSVKGRFTISRDNAKNTLFLQMNNLKFEDTAVYYCTNTQNGKTKGQGTQVTVSS , what is its reported EC50?
Response line: 108

Prompt line: For Q65D1 (VHH, not shown: small tags and cut ends, Family 1; purified from E. coli) VHH: EVQLVESGGGLVQPGGSLRLSCTASGFDFDNHWMCWVRQAPGKGLEWVSEINTNGLITKYADFVKGRFTVSRDNAANTLYLQITRLKPEDTALYYCARNQKGLNKGQGTQVTVSS , what is its reported EC50?
Response line: 0.32

Prompt line: For Q62F11 (VHH, not shown: small tags and cut ends, Neither Family 1 nor Family 2; purified from E. coli) VHH: QVQLVESGGGLVQPGGSLRLSCAASGFSFSDYVMGWFRQAPGKEREFVGFIRWDGLVTRYADAVKGRFTISRDNARNTLSLQTIGLLAEDTAVYYCAASGGGSGPVNAGSYEYWGQGTQVTVSS , what is its reported EC50?
Response line: 1.4

Prompt line: For Q65A3 (VHH, not shown: small tags and cut ends, Family 2; purified from E. coli) VHH: EVQLVESGGGLVQPGGSLRPSCTTSGLDFGIHWMYWFRQAPGKELEWVAEINTNALITKYADSVKGRFTISRDNAKNTLFLQMNDLKSEDTAVYYCSNTQNGAAKGQGVQVTVSS , what is its reported EC50?
Response line: 1.1
